System: microorganisms
assayRemarks: Peptides having multiple activities (targeting/binding, antimicrobial, growth or phenotype altering)
measuredEndpoint: Activities

PF-355: peptide having multiple activities (chain 1 WIAIGLLLYFSLKNQ; chain 2 WIAIGLLLYFSLKNQ; Peptide with targeting and/or antimicrobial activity)
G B
PF-686: peptide having multiple activities (chain 1 LAVLMGYIGYRGWSGKRHINRQ; chain 2 LAVLMGYIGYRGWSGKRHINRQ; Peptide with targeting and/or antimicrobial activity)
G B
PF-398: peptide having multiple activities (ILVVLAGILLVVLSYVGISKFKMNC; Peptide with targeting and/or antimicrobial activity)
G B

###

Test system: microorganisms
assayRemarks: Peptides having multiple activities (targeting/binding, antimicrobial, growth or phenotype altering)
From the text: In certain embodiments, peptides described herein can have multiple activities. Thus for example, a peptide can have both binding/targeting activity and antimicrobial activity. Such peptides can be used, e.g., in a chimeric construct, for any or all of these properties. Thus, for example, a peptide designated “B” in Table 8 can be used as a targeting peptide. If it is also designated G or M it can also be used for antimicrobial activity.
measuredEndpoint: Activities

FQKPFTGEEVEDFQDDDEIPTII [PF-437]
G M
PF-C142: peptide having multiple activities (DFPPLSFFRRRFHAYTAPIDNFFGANPF; Peptide with targeting and/or antimicrobial activity)
G B
PF-484: peptide having multiple activities (chain 1 HKKDIRKQVFKN; chain 2 HKKDIRKQVFKN; Peptide with targeting and/or antimicrobial activity)
G B
